Source: ChEMBL document CHEMBL1921774

In this section we review reported Ki values for a set of compounds.
# TARGET OR SYSTEM: D(1A) dopamine receptor (Sus scrofa, UniProt P50130)
# Sequence (P50130 whole entry): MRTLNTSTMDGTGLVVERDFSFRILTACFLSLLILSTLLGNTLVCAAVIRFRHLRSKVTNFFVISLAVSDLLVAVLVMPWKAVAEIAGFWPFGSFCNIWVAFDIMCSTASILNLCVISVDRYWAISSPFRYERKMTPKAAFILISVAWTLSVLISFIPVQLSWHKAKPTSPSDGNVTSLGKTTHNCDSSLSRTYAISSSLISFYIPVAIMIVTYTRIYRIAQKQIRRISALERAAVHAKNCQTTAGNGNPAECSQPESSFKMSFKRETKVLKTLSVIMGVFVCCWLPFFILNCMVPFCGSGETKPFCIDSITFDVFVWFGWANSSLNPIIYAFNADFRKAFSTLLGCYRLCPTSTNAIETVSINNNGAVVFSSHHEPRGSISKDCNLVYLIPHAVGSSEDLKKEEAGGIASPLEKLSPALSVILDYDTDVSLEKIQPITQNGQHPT
# PROTOCOL TEXT: Displacement of [3H]SCH23390 from dopamine D1 receptor in porcine striatal membranes
Supply the numeric figure in µM, leaving out any unit text.

The examples below pair each entry with its known result.
Fc1ccc(CN2CCN(c3ccc4c(c3)OCCO4)CC2)cc1 ... 19
Oc1cc(CN2CCN(c3ccc4c(c3)OCCO4)CC2)ccc1F ... 15
COc1cc(CN2CCN(c3ccc4c(c3)OCCO4)CC2)ccc1F ... 23

We now examine a further compound.
Please look at this compound and report its Ki: Fc1ccc(CN2CCN(c3ccc4c(c3)OCCO4)CC2)cn1
35
